Test system: Escherichia coli TOP10;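 also: peptides expressed intracellularly from a pBAD plasmid library in pooled LB shake-flask culture, induced with 0.3% L-arabinose, DNA abundance read by NGS, three biological replicates, DESeq2 with apeglm shrinkage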
Assay: shrunken log2 fold change of peptide-encoding DNA abundance (4.5 h post-induction vs induction); higher = less antimicrobial activity (less host growth inhibition)
Conditions: time post-induction: 4.5 h; library: site-saturation at positions 5, 18, 19, 20
Where shrunken log2 fold change equals or exceeds -0.03, the correct label is criterion met; where it does not, the label is criterion not met.

Use the examples below as a reference point.
| SEQUENCE_DATA | CLASSIFICATION |
| --- | --- |
| RRIRGRPPRLPRPRPRPRFVPRP | criterion met |
| RRIRFRPPRLPRPRPRPEWAPRP | criterion met |
| RRIRQRPPRLPRPRPRPWHRPRP | criterion not met |
| RRIRNRPPRLPRPRPRPYNMPRP | criterion met |
| RRIRNRPPRLPRPRPRPCDMPRP | criterion met |

# ---- query sequence ----
-- ask Quick check, shrunken log2 fold change >= -0.03? `RRIRRRPPRLPRPRPRPNEHPRP`
-- reply criterion not met
